target: GABA-A receptor; alpha-2/beta-3/gamma-2 (Homo sapiens, UniProt P18507+P28472+P47869); assay: Displacement of [3H]flunitrazepam from human recombinant GABAA alpha-2-beta-3-gamma-2 receptor expressed in HEK cells by liquid scintillation counting
Sequence (P18507 whole entry): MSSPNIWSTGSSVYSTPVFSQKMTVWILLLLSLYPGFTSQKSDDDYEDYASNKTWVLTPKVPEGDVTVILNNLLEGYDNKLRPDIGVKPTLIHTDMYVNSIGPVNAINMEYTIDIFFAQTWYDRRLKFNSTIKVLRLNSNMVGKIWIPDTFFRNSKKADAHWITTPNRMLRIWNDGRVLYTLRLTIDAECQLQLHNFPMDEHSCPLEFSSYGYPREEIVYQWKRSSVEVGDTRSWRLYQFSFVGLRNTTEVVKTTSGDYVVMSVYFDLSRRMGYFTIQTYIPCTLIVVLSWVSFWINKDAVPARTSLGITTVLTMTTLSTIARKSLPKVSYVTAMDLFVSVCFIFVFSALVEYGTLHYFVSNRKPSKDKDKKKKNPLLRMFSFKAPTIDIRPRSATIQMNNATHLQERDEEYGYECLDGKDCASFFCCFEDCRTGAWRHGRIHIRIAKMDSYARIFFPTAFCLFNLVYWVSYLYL
Sequence (P28472 whole entry): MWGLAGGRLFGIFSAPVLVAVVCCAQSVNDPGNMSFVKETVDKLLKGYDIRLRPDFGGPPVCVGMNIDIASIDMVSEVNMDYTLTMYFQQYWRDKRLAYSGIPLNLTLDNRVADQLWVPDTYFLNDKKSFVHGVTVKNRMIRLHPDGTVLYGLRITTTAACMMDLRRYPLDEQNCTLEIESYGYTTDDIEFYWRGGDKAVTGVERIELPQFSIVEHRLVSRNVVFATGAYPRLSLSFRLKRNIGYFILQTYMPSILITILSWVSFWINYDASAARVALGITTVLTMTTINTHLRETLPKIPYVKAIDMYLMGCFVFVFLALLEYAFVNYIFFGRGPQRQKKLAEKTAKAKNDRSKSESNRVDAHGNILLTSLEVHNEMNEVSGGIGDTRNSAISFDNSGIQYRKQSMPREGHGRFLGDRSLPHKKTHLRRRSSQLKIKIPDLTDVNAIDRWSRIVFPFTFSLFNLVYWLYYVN
Sequence (P47869 whole entry): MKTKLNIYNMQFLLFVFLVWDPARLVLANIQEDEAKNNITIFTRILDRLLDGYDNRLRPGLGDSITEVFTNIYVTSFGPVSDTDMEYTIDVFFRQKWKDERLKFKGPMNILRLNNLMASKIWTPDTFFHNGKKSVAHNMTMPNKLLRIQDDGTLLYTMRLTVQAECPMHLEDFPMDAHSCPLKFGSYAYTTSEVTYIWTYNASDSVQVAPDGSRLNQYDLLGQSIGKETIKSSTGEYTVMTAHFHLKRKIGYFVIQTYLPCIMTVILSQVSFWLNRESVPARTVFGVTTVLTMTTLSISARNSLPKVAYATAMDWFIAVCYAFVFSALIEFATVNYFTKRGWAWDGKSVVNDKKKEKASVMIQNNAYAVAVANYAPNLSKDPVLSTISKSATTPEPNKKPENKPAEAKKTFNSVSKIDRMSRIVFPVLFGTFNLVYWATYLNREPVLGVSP
pKi: −log10 of the molar value.
Recorded measurements of pKi, one per entry
Measurement Kind: pKi

# Compound, Observed Measurement
data = [
    ("CC(C)(C)OC(=O)c1cc2c(cn1)[nH]c1ccc(F)cc12", 8.34),
    ("O=C(OCC(Cl)(Cl)Cl)c1cc2c(cn1)[nH]c1ccccc12", 7.48),
    ("CC(C)CCOc1cc2c3ccccc3nc-2c[nH]1", 5.52),
    ("CC(C)(C)OC(=O)c1ccc2[nH]c3ccc(C#Cc4ccc5[nH]c6ccc(C(=O)OC(C)(C)C)cc6c5c4)cc3c2c1", 6.91),
    ("O=C(OCC(F)(F)F)c1cc2c(cn1)[nH]c1ccc(-c3ccccc3)cc12", 6.86),
    ("CC(C)(C)OC(=O)c1cc2c(cn1)[nH]c1ccc(-c3cccs3)cc12", 6.78),
    ("CC/C=C/C=C/Oc1cc2c(cn1)[nH]c1ccccc12", 6.09),
    ("O=C(OCC(F)(F)F)c1cc2c(cn1)[nH]c1ccc(-c3ccco3)cc12", 6.84),
    ("C#Cc1ccc2[nH]c3cnc(C(=O)OCC(F)(F)F)cc3c2c1", 7.35),
    ("CC(C)(C)OC(=O)c1cc2c(cn1)[nH]c1ccc(-c3ccccc3)cc12", 8.69),
    ("CC(C)(C)OC(=O)c1cc2c(cn1)[nH]c1ccc(I)cc12", 7.35),
    ("O=C(OC(C(F)(F)F)C(F)(F)F)c1cc2c(cn1)[nH]c1ccccc12", 8.10),
    ("O=C(OC(C(F)(F)F)C(F)(F)F)c1cc2c(cn1)[nH]c1ccc(I)cc12", 6.52),
    ("C[Si](C)(C)C#Cc1ccc2[nH]c3cnc(C(=O)OCC(F)(F)F)cc3c2c1", 7.23),
    ("O=C(OCC(F)(F)F)c1cc2c(cn1)[nH]c1ccc(I)cc12", 7.41),
    ("CC(C)(C)OC(=O)c1cc2c(cn1)[nH]c1ccc(C#C[Si](C)(C)C)cc12", 7.52),
    ("CCOC(=O)c1cc2c(cn1)[nH]c1ccc(I)cc12", 7.51),
    ("O=C(Oc1cc(F)c(F)cc1F)c1cc2c(cn1)[nH]c1ccccc12", 6.75),
    ("C[C@H](OC(=O)c1cc2c(cn1)[nH]c1ccccc12)C(F)(F)F", 6.03),
    ("C[C@@H](OC(=O)c1cc2c(cn1)[nH]c1ccccc12)C(F)(F)F", 6.46),
    ("CCCC(=O)c1cc2c(cn1)[nH]c1ccc(F)cc12", 7.57),
    ("CC(C)(C)OC(=O)c1cc2c(cn1)[nH]c1ccc(-c3ccco3)cc12", 7.89),
    ("CC(C)(C)OC(=O)c1cc2c(cn1)[nH]c1ccc(C#Cc3ccc4[nH]c5cnc(C(=O)OC(C)(C)C)cc5c4c3)cc12", 6.91),
    ("CCC(C)OC(=O)c1cc2c(cn1)[nH]c1ccccc12 (centres undefined)", 7.22),
    ("O=C(OCC(F)(F)F)c1cc2c(cn1)[nH]c1ccc(-c3cccs3)cc12", 7.89),
    ("CC(C)(C)OC(=O)c1cc2c(cn1)[nH]c1ccc(C#CC#Cc3ccc4[nH]c5cnc(C(=O)OC(C)(C)C)cc5c4c3)cc12", 5.98),
    ("O=C(OCC(F)(F)F)c1cc2c(cn1)[nH]c1ccccc12", 7.61),
    ("CCOC(=O)c1cc2c(cn1)[nH]c1ccc(C#C[Si](C)(C)C)cc12", 8.35),
    ("CC(C)(C)OC(=O)c1cc2c(cn1)[nH]c1ccc(C(C)(C)C)cc12", 8.05),
]

---

molecular target: GABA-A receptor; alpha-6/beta-3/gamma-2 (Homo sapiens, UniProt P18507+P28472+Q16445); test: Displacement of [3H]flunitrazepam from human recombinant GABAA alpha-6-beta-3-gamma-2 receptor expressed in HEK cells by liquid scintillation counting
Sequence (Q16445 whole entry, one chain of several): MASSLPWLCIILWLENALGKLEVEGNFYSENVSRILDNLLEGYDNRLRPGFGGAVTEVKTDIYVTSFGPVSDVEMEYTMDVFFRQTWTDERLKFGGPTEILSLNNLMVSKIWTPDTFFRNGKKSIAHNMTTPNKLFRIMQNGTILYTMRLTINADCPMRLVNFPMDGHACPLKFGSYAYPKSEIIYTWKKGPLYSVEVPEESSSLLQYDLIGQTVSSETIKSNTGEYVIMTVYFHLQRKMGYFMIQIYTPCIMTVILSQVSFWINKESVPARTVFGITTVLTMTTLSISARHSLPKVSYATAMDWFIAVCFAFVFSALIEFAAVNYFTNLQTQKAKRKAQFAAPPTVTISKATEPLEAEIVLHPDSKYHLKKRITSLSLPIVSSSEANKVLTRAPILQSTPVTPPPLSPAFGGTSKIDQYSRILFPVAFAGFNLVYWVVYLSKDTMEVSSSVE
Recorded measurements of Ki, one per entry

# Compound, Ki
data = [
    ("C#Cc1ccc2[nH]c3cnc(C(=O)OC(C)(C)C)cc3c2c1", "1980 nM"),
    ("CCC(C)OC(=O)c1cc2c(cn1)[nH]c1ccccc12 (stereo not drawn)", "> 2000 nM"),
    ("CC(C)(C)OC(=O)c1cc2c(cn1)[nH]c1ccc(C#Cc3ccc4[nH]c5cnc(C(=O)OC(C)(C)C)cc5c4c3)cc12", "> 4000 nM"),
]

---

Recorded measurements of Ki, one per entry
molecular target: GABA-A receptor; alpha-1/beta-3/gamma-2 (Homo sapiens, UniProt P14867+P18507+P28472); assay: Displacement of [3H]flunitrazepam from human recombinant GABAA alpha-1-beta-3-gamma-2 receptor expressed in HEK cells by liquid scintillation counting
Sequence (P14867 whole entry): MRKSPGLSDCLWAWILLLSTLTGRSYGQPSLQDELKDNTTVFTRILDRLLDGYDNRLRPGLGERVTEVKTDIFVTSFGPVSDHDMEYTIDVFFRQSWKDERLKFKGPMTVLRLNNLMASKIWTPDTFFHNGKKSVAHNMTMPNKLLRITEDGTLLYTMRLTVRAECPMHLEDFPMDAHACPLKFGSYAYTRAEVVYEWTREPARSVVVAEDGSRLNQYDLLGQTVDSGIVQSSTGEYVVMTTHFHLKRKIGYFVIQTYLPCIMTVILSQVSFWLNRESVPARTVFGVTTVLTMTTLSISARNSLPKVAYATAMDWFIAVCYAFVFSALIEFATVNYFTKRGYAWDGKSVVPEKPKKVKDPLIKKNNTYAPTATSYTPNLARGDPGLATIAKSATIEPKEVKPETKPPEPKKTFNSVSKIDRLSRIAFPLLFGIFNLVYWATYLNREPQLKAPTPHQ
Sequence (P18507 whole entry): as the sequence (P18507 whole entry) above
Sequence (P28472 whole entry): as the sequence (P28472 whole entry) above

# Smiles Repr, Unit, Ki
rows = [
    ("O=C(OC(C(F)(F)F)C(F)(F)F)c1cc2c(cn1)[nH]c1ccc(I)cc12", "nM", 78),
    ("C[C@H](OC(=O)c1cc2c(cn1)[nH]c1ccccc12)C(F)(F)F", "nM", 90),
    ("CC(C)(C)OC(=O)c1cc2c(cn1)[nH]c1ccc(-c3ccccc3)cc12", "nM", 3.63),
    ("O=C(OCC(F)(F)F)c1cc2c(cn1)[nH]c1ccc(I)cc12", "nM", 12),
    ("CC(C)(C)OC(=O)c1ccc2[nH]c3ccc(C#Cc4ccc5[nH]c6ccc(C(=O)OC(C)(C)C)cc6c5c4)cc3c2c1", "nM", 30),
]

---

Recorded measurements of Ki, one per entry
molecular target: GABA A receptor alpha-4/beta-3/gamma-2 (Homo sapiens, UniProt P18507+P28472+P48169); test: Displacement of [3H]flunitrazepam from human recombinant GABAA alpha-4-beta-3-gamma-2 receptor expressed in HEK cells by liquid scintillation counting; assay type: cell-based, HEK293; conditions: read-out: Ki
Sequence (P18507 whole entry): as the sequence (P18507 whole entry) above
Sequence (P28472 whole entry): as the sequence (P28472 whole entry) above
Sequence (P48169 whole entry): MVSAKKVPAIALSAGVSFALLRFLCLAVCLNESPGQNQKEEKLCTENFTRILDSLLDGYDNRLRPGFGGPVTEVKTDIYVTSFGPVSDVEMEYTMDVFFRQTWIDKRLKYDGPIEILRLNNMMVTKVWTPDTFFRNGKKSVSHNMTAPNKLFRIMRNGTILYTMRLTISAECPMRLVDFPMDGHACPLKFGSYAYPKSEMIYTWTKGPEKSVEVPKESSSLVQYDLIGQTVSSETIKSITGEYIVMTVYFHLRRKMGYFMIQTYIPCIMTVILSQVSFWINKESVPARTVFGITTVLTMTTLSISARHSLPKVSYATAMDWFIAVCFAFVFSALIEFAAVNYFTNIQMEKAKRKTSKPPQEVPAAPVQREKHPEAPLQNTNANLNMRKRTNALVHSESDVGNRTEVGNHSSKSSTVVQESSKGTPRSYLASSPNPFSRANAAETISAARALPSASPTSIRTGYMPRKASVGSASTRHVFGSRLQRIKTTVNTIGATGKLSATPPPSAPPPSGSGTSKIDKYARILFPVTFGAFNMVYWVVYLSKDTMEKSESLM
Measurement Kind: Ki

# Smiles Repr, System Under Test, Measurement Kind, Observed Measurement
data = [
    ("C[C@H](OC(=O)c1cc2c(cn1)[nH]c1ccccc12)C(F)(F)F", "GABA A receptor alpha-4/beta-3/gamma-2 (Homo sapiens, UniProt P18507+P28472+P48169)", "Ki", "> 3 µM"),
    ("CC(C)(C)OC(=O)c1cc2c(cn1)[nH]c1ccc(C#Cc3ccc4[nH]c5cnc(C(=O)OC(C)(C)C)cc5c4c3)cc12", "GABA A receptor alpha-4/beta-3/gamma-2 (Homo sapiens, UniProt P18507+P28472+P48169)", "Ki", "> 0.3 µM"),
    ("CC(C)(C)OC(=O)c1cc2c(cn1)[nH]c1ccc(I)cc12", "GABA A receptor alpha-4/beta-3/gamma-2 (Homo sapiens, UniProt P18507+P28472+P48169)", "Ki", "> 4 µM"),
    ("O=C(OCC(F)(F)F)c1cc2c(cn1)[nH]c1ccccc12", "GABA A receptor alpha-4/beta-3/gamma-2 (Homo sapiens, UniProt P18507+P28472+P48169)", "Ki", "> 0.5 µM"),
    ("C[C@@H](OC(=O)c1cc2c(cn1)[nH]c1ccccc12)C(F)(F)F", "GABA A receptor alpha-4/beta-3/gamma-2 (Homo sapiens, UniProt P18507+P28472+P48169)", "Ki", "> 3 µM"),
    ("CC(C)(C)OC(=O)c1cc2c3ccccc3nc-2c[nH]1", "GABA A receptor alpha-4/beta-3/gamma-2 (Homo sapiens, UniProt P18507+P28472+P48169)", "Ki", "1 µM"),
    ("C[Si](C)(C)C#Cc1ccc2[nH]c3cnc(C(=O)OCC(F)(F)F)cc3c2c1", "GABA A receptor alpha-4/beta-3/gamma-2 (Homo sapiens, UniProt P18507+P28472+P48169)", "Ki", "0.2 µM"),
]

---

Recorded measurements of Ki, one per entry
molecular target: GABA-A receptor; alpha-1/beta-3/gamma-2 (Homo sapiens, UniProt P14867+P18507+P28472); experiment: Displacement of [3H]flunitrazepam from human recombinant GABAA alpha-1-beta-3-gamma-2 receptor expressed in HEK cells by liquid scintillation counting

# Compound, Ki
data = [
    ("O=C(OCC(F)(F)F)c1cc2c(cn1)[nH]c1ccccc12", "3 nM"),
    ("O=C(Oc1cc(F)c(F)cc1F)c1cc2c(cn1)[nH]c1ccccc12", "22 nM"),
    ("CC(OC(=O)c1cc2c(cn1)[nH]c1ccccc12)c1ccccc1 (stereo not given)", "33.5 nM"),
    ("C#Cc1ccc2c(c1)c1cc(C(=O)OC(C)(C)C)ncc1n2C(=O)OC(C)(C)C", "450 nM"),
    ("C#Cc1ccc2[nH]c3cnc(C(=O)OCC(F)(F)F)cc3c2c1", "4.5 nM"),
]
